Test system: TNFα production in LPS-stimulated human monocytes
EXPERIMENT SUMMARY: Cot Monocyte TNFα Cell Based Assay
APPLIED CONDITIONS: Homo sapiens, Monocyte, LPS-stimulated human monocytes, TNFα TR-FRET; read-out: EC50 TNF
Method: Example 60: Cot Monocyte TNFα Cell Based Assay The cell suspension was then plated at a density of 5,000 cells/well onto black 384 well Greiner clear bottom plates. […] Cells were then spun out of the media and 5 ul of sample were taken and analyzed for total TNFα content using the TR-FRET Human TNFα detection system (CisBio). […]
pEC50: −log10 of the molar value.
pEC50 of 7 or higher: condition met. Under 7: condition not met.

Reported pEC50 at or above 7? `Cc1c(C#N)cccc1[C@H](Nc1cc(C#N)c2ncc(C#N)c(NCC(C)(C)C)c2c1)c1cn(C2(C3CC3)CC2)nn1`
condition met

Can `Cc1c(C#N)cccc1[C@H](Nc1cc(C#N)c2ncc(C#N)c(NCC(C)(C)C)c2c1)c1cn(C2(C(F)F)CC2)nn1` be said to have pEC50 at or above 7?
condition met

# check: pEC50 of `CC(C)(C)CNc1c(C#N)cnc2c(Cl)cc(N[C@H](c3cn(C4(C(F)(F)F)CC4)nn3)c3cccc(C(N)=O)c3F)cc12` is greater than or equal to 7
condition not met

Please tell me: is the compound `[2H][C@](Nc1cc(Cl)c2ncc(C#N)c(Nc3cccc(Cl)c3C(C)=O)c2c1)(c1ccc(F)cc1)c1cn(C2CC2)nn1` at or over 7 in terms of pEC50?
condition not met

// inclusive: pEC50 at least 7? input: `COc1c([C@@H](Nc2cc(Cl)c3ncc(C#N)c(NCC(C)(C)C)c3c2)c2ccccc2Cl)nnn1C1(C)CC1`
condition not met

----------
SYSTEM TESTED: human Cot catalytic domain (30-397 amino acids) (Homo sapiens, UniProt P41279)
Construct: Purified recombinant human Cot catalytic domain (30-397 amino acids) was purchased from Cama Biosciences; purchased Cama Biosciences (so in the source)
Sequence (P41279 30-397): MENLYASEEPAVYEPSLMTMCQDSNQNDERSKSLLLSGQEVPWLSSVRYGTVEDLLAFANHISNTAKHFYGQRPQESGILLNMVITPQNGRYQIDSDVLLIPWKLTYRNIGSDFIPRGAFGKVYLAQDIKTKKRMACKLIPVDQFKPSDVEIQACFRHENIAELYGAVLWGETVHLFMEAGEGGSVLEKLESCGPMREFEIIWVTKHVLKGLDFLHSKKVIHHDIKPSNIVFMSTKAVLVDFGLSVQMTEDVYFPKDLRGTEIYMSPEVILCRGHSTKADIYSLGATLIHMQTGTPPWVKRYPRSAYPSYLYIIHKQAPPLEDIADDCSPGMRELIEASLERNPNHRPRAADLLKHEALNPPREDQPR
EXPERIMENT SUMMARY: High Throughput Cot Biochemical Assay (KinEASE TR-FRET)
APPLIED CONDITIONS: Cot KinEASE TR-FRET, 400 μM ATP; read-out: IC50 HTRF
TEST READOUT: log10 IC50 (log10 of the value in nM)
Please interpret these as log10 of IC50 where IC50 is in nM.

The compound identified as `N#Cc1cnc2c(Cl)cc(N[C@H](c3ccc(Cl)cc3)c3cn(C4CCNCC4)nn3)cc2c1Nc1ccc(F)c(Cl)c1` registered its log10 IC50 at 3.13

Field log10 IC50 (entry `CC(C)(C)CNc1c(C#N)cnc2c(C#N)cc(N[C@@H](c3ccc(F)cc3)c3cn(C4(C5CC5)CC4)nn3)cc12` ) reads 0.95

Form: compound = `Cc1c(C#N)cccc1[C@H](Nc1cc(C#N)c2ncc(C#N)c(NCC(C)(C)C)c2c1)c1cn([C@@H](C)CF)nn1` ; log10 IC50 = 0.30

Sample `Cc1ccccc1[C@H](Nc1cc(C#N)c2ncc(C#N)c(NCC(C)(C)C)c2c1)c1cn(C2(C#N)CC2)nn1` ; log10 IC50 observed: 0.70

The compound identified as `[2H][C@](Nc1cc(Cl)c2ncc(C#N)c(NCC(C)(C)C)c2c1)(c1ccc(Cl)cc1)c1cn(C2CCN(C3CC3)CC2)nn1` registered its log10 IC50 at 1.36

# log10 IC50 of `[2H][C@@](Nc1cc(C(C)=O)c2ncc(C#N)c(N[C@H](CCC#N)c3ccccc3)c2c1)(c1cn(C2CC2)nn1)c1ccccc1Cl` = 0.60

log10 IC50 measured on CCN1CCC(n2cc(C(Nc3cc(Cl)c4ncc(C#N)c(Nc5ccc(F)c(Cl)c5)c4c3)c3cccc(OC)c3)nn2)CC1 (centres unmarked) = 0.70

For record N#Cc1cnc2c(Cl)cc(NC(c3ccc(Cl)cc3)c3cn(C4CCNCC4)nn3)cc2c1Nc1ccc(F)c(Cl)c1 (centres unmarked) the listed log10 IC50 is 1.36

Entry under test: `[2H][C@](Nc1cc(Cl)c2ncc(C#N)c(Nc3cccc4ccccc34)c2c1)(c1ccc(F)cc1)c1cn(C2CC2)nn1` . Its log10 IC50 was 2.50

For reference, reported log10 IC50 for `Cc1c([C@H](Nc2cc(C#N)c3ncc(C#N)c(NCC(C)(C)C)c3c2)c2cn(C3(C(F)(F)F)CC3)nn2)cccc1-n1ccnc1` stands at 0.30
